- Test System: T1, cynomolgus transferrin receptor (TfR) ectodomain (ECD) (cynomolgus, UniProt Q5RDH6 121-760 (Pongo abelii entry), biotinylated where captured on streptavidin)
- T1 construct: also called cyno TfR; cynoTfR; not shown: C-terminal cleavable His- and Avi-tags
- T1 chain: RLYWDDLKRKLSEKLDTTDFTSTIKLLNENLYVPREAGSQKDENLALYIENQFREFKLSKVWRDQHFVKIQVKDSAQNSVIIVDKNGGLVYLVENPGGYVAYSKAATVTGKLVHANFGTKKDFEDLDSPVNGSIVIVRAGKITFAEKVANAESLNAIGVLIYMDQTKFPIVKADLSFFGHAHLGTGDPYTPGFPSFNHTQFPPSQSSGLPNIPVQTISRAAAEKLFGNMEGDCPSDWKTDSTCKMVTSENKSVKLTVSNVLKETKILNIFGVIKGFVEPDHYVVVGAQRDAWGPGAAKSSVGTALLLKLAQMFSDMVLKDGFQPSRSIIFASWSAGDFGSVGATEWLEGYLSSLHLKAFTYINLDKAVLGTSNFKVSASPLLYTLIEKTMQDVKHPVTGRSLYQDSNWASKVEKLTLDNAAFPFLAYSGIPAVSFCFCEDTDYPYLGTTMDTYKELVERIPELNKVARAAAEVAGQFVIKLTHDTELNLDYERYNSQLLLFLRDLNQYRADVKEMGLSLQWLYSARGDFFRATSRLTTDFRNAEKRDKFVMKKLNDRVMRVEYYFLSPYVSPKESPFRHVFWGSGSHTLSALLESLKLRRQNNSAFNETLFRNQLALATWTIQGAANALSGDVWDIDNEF
- Method Summary: yeast surface display flow cytometry; yeast-displayed clone stained with 250 nM biotinylated cyno TfR, neutravidin-AF647; median fluorescence intensity
- Experimental: For each clone, two million cells were washed three times in PBS+0.5% BSA at pH 7.4. […] Cells were stained with nuetravidin-Alexafluor647 (AF647) for 30 minutes at 4° C., then washed twice again. Expression was measured using anti-c-myc antibody with anti-chicken-Alexfluor488 (AF488) secondary antibody. Cells were resuspended, and median fluorescence intensity (MFI) of AF647 and AF488 was measured on a BD FACS CantoII. […]

# Binder, binding result
data = [
    ("3.2-19 (designed binder, also called CH3C.3.2-19) modified Fc polypeptide displayed on yeast (c-Myc tagged): PCPAPELLGGPSVFLFPPKPKDTLMISRTPEVTCVVVDVSHEDPEVKFNWYVDGVEVHNAKTKPREEQYNSTYRVVSVLTVLHQDWLNGKEYKCKVSNKALPAPIEKTISKAKGQPREPQVYTLPPSRDELTKNQVSLTCLVKGFYPSDIAVEWESLGHVWVNQKTTPPVLDSDGSFFLYSKLTVPKSTWQQGWVFSCSVMHEALHNHYTQKSLSLSPGK", "binds"),
    ("3.1-3 (designed binder, also called CH3C.3.1-3) modified Fc polypeptide displayed on yeast (c-Myc tagged): PCPAPELLGGPSVFLFPPKPKDTLMISRTPEVTCVVVDVSHEDPEVKFNWYVDGVEVHNAKTKPREEQYNSTYRVVSVLTVLHQDWLNGKEYKCKVSNKALPAPIEKTISKAKGQPREPQVYTLPPSRDELTKNQVSLTCLVKGFYPSDIAVEWESLGHVWVATKTTPPVLDSDGSFFLYSKLTVPKSTWQQGWVFSCSVMHEALHNHYTQKSLSLSPGK", "binds"),
]
